# Assayed system: T1, human serum albumin (human, UniProt P02768 25-609)
# T1 construct: also called HSA
# Test summary: SPR (Bruker Sierra SPR-32), HSA on chip, DARPin as analyte, 1:1 Langmuir fit
pKd: −log10 of the molar value.
Overview of recorded pKd for various binders
Attribute measured: pKd

• MAM160 (two domain ankyrin repeat protein, N-terminal His6-TEV tag) (designed binder, also called 2D DARPin) MRGSHHHHHHENLYFQDLGKKLLEAARAGQDDEVRELLKAGADVNAKDYFSHTPLHLAARNGHLKIVEVLLKAGADVNAKDFAGKTPLHLAADAGHLEIVEVLLKAGADVNAQDIFGKTPADIAADAGHEDIAEVLQKAAGSPTPTPTTPTPTPTTPTPTPTGSDLGTKLLSAAADGQDDEVRELLQAGADVNAKDLFGYTPLHLAAWRGHLEIVEVLLEAGADVNAKDAAGLTPLHLAAWFGHLEIVEVLLEAGADVNAQDVQGVTPADLAAKEGHEDIAEVLQQAA = 7.02
• MAM283 (two domain ankyrin repeat protein, N-terminal His6-TEV tag) (designed binder, also called 2D DARPin) MRGSHHHHHHENLYFQDLGKKLLEAARAGQDDEVRELLKAGADVNAKDYFSHTPLHLAARNGHLKIVEVLLKAGADVNAKDFAGKTPLHLAADAGHLEIVEVLLKAGADVNAQDIFGKTPADIAADAGHEDIAEVLQKAAGSPTPTPTTPTPTPTTPTPTPTGSDLGKKLLAAAADGQDDEVRELLQAGADVNAKDLFGYTPLHLAAWRGHLEIVEVLLEAGADVNAKDAAGETPLHLAAWFGHLEIVEVLLEAGADVNAQDVQGKTPADLAAKEGHEDIAEVLQQAA = 6.99
• MAM279 (two domain ankyrin repeat protein, N-terminal His6-TEV tag) (designed binder, Cleavage of the tag is not reported; also called 2D DARPin) MRGSHHHHHHENLYFQDLGKKLLEAARAGQDDEVRELLKAGADVNAKDYFSHTPLHLAARNGHLKIVEVLLKAGADVNAKDFAGKTPLHLAADAGHLEIVEVLLKAGADVNAQDIFGKTPADIAADAGHEDIAEVLQKAAGSPTPTPTTPTPTPTTPTPTPTGSDLGKKLLAAAAQGQDDEVRELLKAGANVNAKDLFGYTPLHLAAWRGHLEIVEVLLKAGADVNAKDAAGETPLHLAAWFGHLEIVEVLLKAGADVNAQDLQGKTPADLAAKEGHEDIAEVLQKAA = 7.12
• MAM282 (two domain ankyrin repeat protein, N-terminal His6-TEV tag) (designed binder, also called 2D DARPin) MRGSHHHHHHENLYFQDLGKKLLEAARAGQDDEVRELLKAGADVNAKDYFSHTPLHLAARNGHLKIVEVLLKAGADVNAKDFAGKTPLHLAADAGHLEIVEVLLKAGADVNAQDIFGKTPADIAADAGHEDIAEVLQKAAGSPTPTPTTPTPTPTTPTPTPTGSDLGKKLLAAAREGQDDEVRELLKAGADVNAKDIWGQTPLHIAAWFGHLEIVEVLLKAGADVNAKDQTGHTPLHLAAKFGHLEIVEVLLKAGADVNAQDLLGRTPADLAAEEGHEDIAEVLQKAA = 7.13
